Entry source: patent US20250302846A1

# System: S. Typhimurium SL1344 or 14028 in RAW 264.7 cells
# assay overview: CFU assay in infected RAW 264.7 macrophages
# Type: cell-based
# stated conditions: Salmonella enterica, TYPHIMURIUM, RAW264.7, 16 h, S. Typhimurium SL1344 in macrophages, treated 16 hours; read-out: CFU IC50
observable: IC50 (µM)
Value expressed in µM; do not type the unit.

Query :: # query: IC50 of entry O=C(Nc1cc(Cl)cc(Cl)c1)N1CCCN(Cc2ccccc2)CC1 [D66]
Result :: 7.7

* * *

# Test system: S. Typhimurium (SL1344 with sifB::gfp) in RAW 264.7 macrophages
# assay overview: SAFIRE assay: bacterial accumulation (GFP) in macrophages
# Assay type: cell-based
# stated conditions: Salmonella enterica, RAW264.7, 16 h, read-out: IC50 in SAFIRE
observable: pIC50
// pIC50: -log10(molar conc.)

Query :: # query: pIC50 of entry `O=C(Nc1cc(Cl)cc(Cl)c1)N1CCCN(Cc2ccccc2)CC1`
Result :: 5.22
